Molecular target: T1, His10 − MBP − KIF1C(714–809) (UniProt O43896 714-809)
T1 construct: Tag kept, as named in the legends and methods of the native gel, ITC and SEC experiments; also called KIF1C_(H3BD); source: E. coli BL21(DE3) RIL, purified (Ni-NTA, size-exclusion chromatography); not shown: His10, N-terminal, kept; MBP, N-terminal, kept
T1 sequence (looked up): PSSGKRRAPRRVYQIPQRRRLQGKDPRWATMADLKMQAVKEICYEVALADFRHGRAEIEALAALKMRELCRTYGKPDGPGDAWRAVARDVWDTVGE
Assay: ITC; 0.8 mM His10−MBP−Hook3(553–624) or His10−MBP−PTPN21(19–308) titrated into 0.04 mM His10−MBP−KIF1C(714–809); 25 °C; 50 mM Tris-HCl pH 7.5, 500 mM NaCl, 3 mM β-mercaptoethanol; MicroCal VP-ITC
Conditions: both partners purified
property label: pKd
A value of pKd is the negative decimal logarithm of a concentration given in moles per litre.

Annotate the binder His10 − MBP−Hook3(553–624) (domain or fragment, UniProt Q86VS8 553-624, looked up, Tagged form used in native gels and ITC; also called Hook3CC3; source: E. coli BL21(DE3) RIL, purified (Ni-NTA, size-exclusion chromatography); not shown: His10, N-terminal, kept; MBP, N-terminal, kept) EKLHEANNELQKKRAIIEDLEPRFNNSSLKIEELQEALRKKEEEMKQMEERYKKYLEKAKSVIRTLDPKQNQ with its measured pKd. 5.80
